System name: Acetylcholinesterase (Bos taurus)
Sequence (P23795 whole entry): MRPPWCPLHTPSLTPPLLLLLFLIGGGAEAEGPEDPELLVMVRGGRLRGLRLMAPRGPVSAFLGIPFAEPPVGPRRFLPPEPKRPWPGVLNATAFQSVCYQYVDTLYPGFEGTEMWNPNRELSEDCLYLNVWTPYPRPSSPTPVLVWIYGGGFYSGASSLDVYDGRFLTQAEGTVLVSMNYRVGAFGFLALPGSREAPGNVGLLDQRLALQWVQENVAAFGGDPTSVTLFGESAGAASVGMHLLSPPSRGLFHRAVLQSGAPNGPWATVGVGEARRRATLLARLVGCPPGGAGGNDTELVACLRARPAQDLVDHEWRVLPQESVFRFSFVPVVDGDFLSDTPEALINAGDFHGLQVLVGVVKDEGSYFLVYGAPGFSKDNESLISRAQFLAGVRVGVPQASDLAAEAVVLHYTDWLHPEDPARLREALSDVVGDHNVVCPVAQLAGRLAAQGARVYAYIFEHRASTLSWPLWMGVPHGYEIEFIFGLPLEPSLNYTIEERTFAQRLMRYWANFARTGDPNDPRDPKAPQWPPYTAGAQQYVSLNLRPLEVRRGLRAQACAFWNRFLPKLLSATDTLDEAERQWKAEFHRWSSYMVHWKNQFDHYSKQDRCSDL
Assay procedure: Inhibitory activity towards beef erythrocytes acetylcholinesterase
Each record here notes measured IC50.

// worked examples, IC50 included
- Cc1cccc2c1OP(=O)(OCC1OC(n3cc(C)c(=O)[nH]c3=O)CC1N=[N+]=[N-])OC2 (stereo unspecified): > 50 µM
- Cc1cccc2c1O[P@](=O)(OC[C@@H]1C=CC(n3cc(C)c(=O)[nH]c3=O)O1)OC2 (single isomer, unassigned): > 50 µM
- Cc1cccc2c1OP(=O)(OCC1CCC(n3cnc4c(N)ncnc43)O1)OC2 (stereo unspecified): > 50 µM
- Cc1cccc2c1O[P@@](=O)(OC[C@@H]1C=C[C@H](n3cc(C)c(=O)[nH]c3=O)O1)OC2: > 50 µM
- Cc1cccc2c1OP(=O)(OC[C@@H]1C[C@H](F)[C@H](n3cnc4c(N)ncnc43)O1)OC2 (stereo partly specified): > 50 µM

## Task May I ask what IC50 has been recorded for Cc1cccc2c1OP(=O)(OCC1C=CC(n3cnc4c(N)ncnc43)O1)OC2 (stereo unspecified) ?
## Result > 50 µM

* * *

As a worked illustration, we turn to pIC50 data collected for Cholinesterase (Homo sapiens, UniProt P06276).
Just the number, please; pIC50 means minus log10 of the concentration in mol/L.

// worked examples, pIC50 included
* Cc1cccc2c1OP(=O)(OCC1CCC(n3cc(C)c(=O)[nH]c3=O)O1)OC2 (configuration not stated) | 6.00
* Cc1cccc2c1OP(=O)(OC[C@H]1O[C@@H](n3cc(C)c(=O)[nH]c3=O)C[C@@H]1O)OC2 (some centres not stated) | 4.44
* Cc1cc(C)c2c(c1)COP(=O)(OCC1C=CC(n3cc(C)c(=O)[nH]c3=O)O1)O2 (configuration not stated) | 4.34

## Task May I ask what pIC50 has been recorded for Cc1cn(C2C=CC(COP3(=O)Oc4cccc(Cl)c4C(C)O3)O2)c(=O)[nH]c1=O (configuration not stated) ?
## Result 5.74

* * *

pIC50: −log10 of the molar value.
As a worked illustration, we turn to pIC50 data collected for Cholinesterase (Homo sapiens).

// worked examples, pIC50 included
* Cc1cccc2c1OP(=O)(OC[C@H]1O[C@@H](N3CC(/C=C/Br)C(=O)NC3=O)C[C@@H]1O)OC2 (some centres undefined) | < 4.30
* O=C1NC(=O)N([C@H]2C[C@H](O)[C@@H](COP3(=O)OCc4cccc(-c5ccccc5)c4O3)O2)C[C@H]1/C=C/Br (some centres undefined) | < 4.30

## Task Give the reported pIC50 for Cc1cccc2c1O[P@@](=O)(OC[C@@H]1C=C[C@H](n3cc(C)c(=O)[nH]c3=O)O1)OC2 (system: Cholinesterase (Homo sapiens)).
Sequence (P06276 whole entry): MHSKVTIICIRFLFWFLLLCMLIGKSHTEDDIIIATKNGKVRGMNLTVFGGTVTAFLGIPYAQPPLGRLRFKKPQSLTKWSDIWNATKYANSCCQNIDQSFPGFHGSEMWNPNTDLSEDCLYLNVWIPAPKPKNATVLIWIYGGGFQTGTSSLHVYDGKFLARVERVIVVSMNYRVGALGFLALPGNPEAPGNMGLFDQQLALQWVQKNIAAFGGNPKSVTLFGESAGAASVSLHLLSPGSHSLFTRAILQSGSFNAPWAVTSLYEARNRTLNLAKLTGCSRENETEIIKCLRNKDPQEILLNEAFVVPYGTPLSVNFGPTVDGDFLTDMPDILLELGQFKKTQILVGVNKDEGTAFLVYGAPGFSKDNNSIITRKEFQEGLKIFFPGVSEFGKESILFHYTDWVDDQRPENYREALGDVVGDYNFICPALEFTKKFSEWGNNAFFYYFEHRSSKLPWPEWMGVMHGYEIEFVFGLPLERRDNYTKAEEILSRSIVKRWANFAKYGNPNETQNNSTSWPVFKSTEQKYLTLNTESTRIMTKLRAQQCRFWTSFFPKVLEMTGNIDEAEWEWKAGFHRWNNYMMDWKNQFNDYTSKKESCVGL
## Result < 4.30

## Task Give the reported pIC50 for Cc1cn([C@H]2C=C[C@@H](CO[P@@]3(=O)OCc4cccc(C(C)(C)C)c4O3)O2)c(=O)[nH]c1=O (system: Cholinesterase (Homo sapiens)).
## Result < 4.30
